# system.name: Glycylpeptide N-tetradecanoyltransferase (Candida albicans (strain SC5314 / ATCC MYA-2876), UniProt P30418)
# Sequence (P30418 whole entry): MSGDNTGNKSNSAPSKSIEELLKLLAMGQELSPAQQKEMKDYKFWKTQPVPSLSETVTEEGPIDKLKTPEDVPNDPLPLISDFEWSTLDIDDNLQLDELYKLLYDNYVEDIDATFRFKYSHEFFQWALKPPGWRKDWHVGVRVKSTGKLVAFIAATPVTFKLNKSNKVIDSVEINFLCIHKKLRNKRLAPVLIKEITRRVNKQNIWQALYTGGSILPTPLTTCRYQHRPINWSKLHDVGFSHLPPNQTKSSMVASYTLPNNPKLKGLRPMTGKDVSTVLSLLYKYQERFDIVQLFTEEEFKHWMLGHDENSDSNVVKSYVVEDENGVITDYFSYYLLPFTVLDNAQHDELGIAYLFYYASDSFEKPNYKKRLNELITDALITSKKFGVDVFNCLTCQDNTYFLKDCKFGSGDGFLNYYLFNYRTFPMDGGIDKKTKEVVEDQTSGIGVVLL
# assay.overview: Inhibition Assay
pIC50: −log10 of the molar value.
measure: pIC50

compound	measure	endpoint.result
O=C(Nc1ccc(S(=O)(=O)NC2=NCCCCC2)cc1)C1COc2ccccc2O1 (configuration not stated) [MLS000761278]	pIC50	5.96
COc1ccc(C(=O)NN=Cc2ccccc2C(=O)O)cc1OC	pIC50	6.08

---

Protein target, amino acids: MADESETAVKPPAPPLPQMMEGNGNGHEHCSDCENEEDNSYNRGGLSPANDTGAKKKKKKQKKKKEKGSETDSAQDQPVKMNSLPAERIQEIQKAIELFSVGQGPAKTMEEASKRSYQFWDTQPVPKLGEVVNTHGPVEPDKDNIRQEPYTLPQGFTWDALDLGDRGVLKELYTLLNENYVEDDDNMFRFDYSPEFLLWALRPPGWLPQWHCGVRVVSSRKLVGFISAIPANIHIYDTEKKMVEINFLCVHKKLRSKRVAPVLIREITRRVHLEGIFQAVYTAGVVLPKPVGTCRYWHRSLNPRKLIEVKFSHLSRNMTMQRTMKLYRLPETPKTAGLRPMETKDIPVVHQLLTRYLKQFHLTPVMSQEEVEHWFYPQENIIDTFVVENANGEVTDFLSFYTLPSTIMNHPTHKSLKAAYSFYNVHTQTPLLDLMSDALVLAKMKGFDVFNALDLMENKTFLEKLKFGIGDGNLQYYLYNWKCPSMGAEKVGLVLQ
measure: IC50

Data point: O=C(Nc1ccc(S(=O)(=O)NC2=NCCCCC2)cc1)C1COc2ccccc2O1 (stereo unspecified) [MLS000761278] ; IC50 = > 570 µM
